Numbers sourced from patent USRE48267E1.

# cGMP response rel. to 1 uM CNP22; 1 uM peptide, NIH3T3 cells values compiled below
Molecular target: T1, NPR-B (natriuretic peptide receptor B), murine, expressed endogenously on NIH3T3 cells (murine, UniProt Q6VVW5 17-1047)
T1 sequence (looked up): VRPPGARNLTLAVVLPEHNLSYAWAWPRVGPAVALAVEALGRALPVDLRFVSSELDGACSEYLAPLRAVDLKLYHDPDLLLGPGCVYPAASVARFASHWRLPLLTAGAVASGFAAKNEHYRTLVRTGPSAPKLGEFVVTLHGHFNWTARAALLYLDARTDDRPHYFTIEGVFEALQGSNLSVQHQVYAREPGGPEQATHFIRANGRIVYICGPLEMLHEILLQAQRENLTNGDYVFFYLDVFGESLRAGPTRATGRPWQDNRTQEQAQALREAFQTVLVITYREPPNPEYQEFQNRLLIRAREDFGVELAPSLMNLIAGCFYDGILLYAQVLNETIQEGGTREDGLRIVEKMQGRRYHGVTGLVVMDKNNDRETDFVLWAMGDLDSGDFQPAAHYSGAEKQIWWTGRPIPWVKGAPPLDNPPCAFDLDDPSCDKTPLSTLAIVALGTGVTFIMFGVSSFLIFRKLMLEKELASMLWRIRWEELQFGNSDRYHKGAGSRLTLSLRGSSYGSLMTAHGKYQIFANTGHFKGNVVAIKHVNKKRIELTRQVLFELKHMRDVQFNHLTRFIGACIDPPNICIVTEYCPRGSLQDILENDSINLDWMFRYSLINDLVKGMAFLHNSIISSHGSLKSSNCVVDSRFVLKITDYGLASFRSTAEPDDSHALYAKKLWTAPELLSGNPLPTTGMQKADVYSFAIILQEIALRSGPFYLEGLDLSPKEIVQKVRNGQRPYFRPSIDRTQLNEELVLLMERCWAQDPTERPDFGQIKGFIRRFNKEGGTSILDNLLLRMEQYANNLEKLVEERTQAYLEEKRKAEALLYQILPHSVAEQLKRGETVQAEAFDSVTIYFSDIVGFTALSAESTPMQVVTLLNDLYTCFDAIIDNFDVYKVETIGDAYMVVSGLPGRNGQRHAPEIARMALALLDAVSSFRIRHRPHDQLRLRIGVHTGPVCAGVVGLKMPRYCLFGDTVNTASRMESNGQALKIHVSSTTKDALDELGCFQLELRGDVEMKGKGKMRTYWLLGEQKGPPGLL
Assay: cell-based or functional assay
Where no end group is shown, it is not given here. The star is where a group is joined. Heptanoyl = CCCCCCC(=O)*
VALUE_KIND: cGMP response rel. to 1 uM CNP22; 1 uM peptide, NIH3T3 cells

BINDER: GQEHPNARKYKGANKKGLSKGCFGLKLDRIGSMSGLGC (ends and bridges not checked; cysteine pairing not given here) [GQEHPNARKYKGANKK-CNP22 (Gly-CNP37)]
RESULT: 98 rel. to 1 uM CNP22 (100)
--
BINDER: RGLSRGCFGLKLDRIGSMSGLGC [R-CNP22, K4R]
RESULT: 106 rel. to 1 uM CNP22 (100)
--
BINDER: AAWARLLQEHPNAGLSKGCFGLKLDRIGSMSGLGC (ends and bridges not checked; cysteine pairing not given here) [AAWARLLQEHPNA-CNP22]
RESULT: 76 rel. to 1 uM CNP22 (100)
--
BINDER: CNP53 (peptide) peptide: DLRVDTKSRAAWARLLQEHPNARKYKGANKKGLSKGCFGLKLDRIGSMSGLGC
RESULT: 101 rel. to 1 uM CNP22 (100)
--
BINDER: QEHPNARKYKGANKKGLSKGCFGLKLDRIGSMSGLGC (ends and bridges not checked; cysteine pairing not given here) [QEHPNARKYKGANKK-CNP22 (CNP37)]
RESULT: 97 rel. to 1 uM CNP22 (100)
--
BINDER: GANPRGLSRGCFGLKLDRIGSMSGLGC [GANPR-CNP22, K4R]
RESULT: 105 rel. to 1 uM CNP22 (100)
--
BINDER: GHHSHEQHPHGANQQGLSKGCFGLKLDRIGSMSGLGC [GHHSHEQHPHGANQQ-CNP22 (HRGP fragment)]
RESULT: 95 rel. to 1 uM CNP22 (100)
--
BINDER: PGHKSEVAHRFKGANKKGLSKGCFGLKLDRIGSMSGLGC [PGHKSEVAHRFKGANKK-CNP22 (Pro-HSA-CNP27)]
RESULT: 107 rel. to 1 uM CNP22 (100)
--
BINDER: GQEHPNARKYKGANQKGLSKGCFGLKLDRIGSMSGLGC (ends and bridges not checked; cysteine pairing not given here) [GQEHPNARKYKGANQK-CNP22 (modified CNP37)]
RESULT: 121 rel. to 1 uM CNP22 (100)
--
BINDER: GQEHPNARKYKGANQQGLSKGCFGLKLDRIGSMSGLGC (ends and bridges not checked; cysteine pairing not given here) [GQEHPNARKYKGANQQ-CNP22 (modified CNP37)]
RESULT: 57 rel. to 1 uM CNP22 (100)
--
BINDER: PGQEHPNARKYKGANKKGLSKGCFGLKLDRIGSMSGLGC (ends and bridges not checked; cysteine pairing not given here) [PGQEHPNARKYKGANKK-CNP22 (Pro-Gly-CNP37)]
RESULT: 103 rel. to 1 uM CNP22 (100)
--
BINDER: GQEHPNARKYKGANPKGLSKGCFGLKLDRIGSMSGLGC (ends and bridges not checked; cysteine pairing not given here) [GQEHPNARKYKGANPK-CNP22 (modified CNP37)]
RESULT: 61 rel. to 1 uM CNP22 (100)
--
BINDER: GAHHPHEHDTHGANQQGLSKGCFGLKLDRIGSMSGLGC [GAHHPHEHDTHGANQQ-CNP22 (HRGP fragment)]
RESULT: 77 rel. to 1 uM CNP22 (100)
--
BINDER: GQTHSSGTQSGANQQGLSRGCFGLKLDRIGSMSGLGC [GQTHSSGTQSGANQQ-CNP22, K4R (fibrinogen)]
RESULT: 115 rel. to 1 uM CNP22 (100)
--
BINDER: Heptanoyl-ELSKGCFGLKLDRIGSMSGLGC (ends and bridges not checked) [Heptanoic acid (N-term.)-CNP22, G1E]
RESULT: 84 rel. to 1 uM CNP22 (100)
--
BINDER: GQPREPQVYTLPPSGLSKGCFGLKLDRIGSMSGLGC [GQPREPQVYTLPPS-CNP22 (IgG1(Fc) fragment)]
RESULT: 72 rel. to 1 uM CNP22 (100)
--
BINDER: GHKSEVAHRFKGANKKGLSKGCFGLKLDRIGSMSGLGC [GHKSEVAHRFKGANKK-CNP22 (HSA-CNP27)]
RESULT: 109 rel. to 1 uM CNP22 (100)
--
BINDER: GLSRGCFGLRLDRIGSMSGLGC (ends and bridges not checked; also: dimer joined N-terminus to N-terminus by Bis-PEO5) [CNP22, K4R, K10R, N-term.--N-term. dimer/Bis-PEO5]
RESULT: 41 rel. to 1 uM CNP22 (100)
--
BINDER: GERAFKAWAVARLSQGLSKGCFGLKLDRIGSMSGLGC [GERAFKAWAVARLSQ-CNP22 (HSA fragment)]
RESULT: 87 rel. to 1 uM CNP22 (100)
--
BINDER: GANQQGLSRGCFGLKLDRIGSMSGLGC [GANQQ-CNP22, K4R]
RESULT: 95 rel. to 1 uM CNP22 (100)
--
BINDER: GVPQVSTSTGANQQGLSRGCFGLKLDRIGSMSGLGC [GVPQVSTSTGANQQ-CNP22, K4R (HSA fragment)]
RESULT: 35 rel. to 1 uM CNP22 (100)
